Kindly state REL. SPEC. BIOLOGICAL ACTIVITY (DNA synthesis of AML193 cells) for each of the entries shown.
biological target: IL-3 receptor (human, UniProt P26951 19-378; P32927 17-897); experiment: cell-based or functional assay
Sequence (P26951 19-378, chain 1 of 2): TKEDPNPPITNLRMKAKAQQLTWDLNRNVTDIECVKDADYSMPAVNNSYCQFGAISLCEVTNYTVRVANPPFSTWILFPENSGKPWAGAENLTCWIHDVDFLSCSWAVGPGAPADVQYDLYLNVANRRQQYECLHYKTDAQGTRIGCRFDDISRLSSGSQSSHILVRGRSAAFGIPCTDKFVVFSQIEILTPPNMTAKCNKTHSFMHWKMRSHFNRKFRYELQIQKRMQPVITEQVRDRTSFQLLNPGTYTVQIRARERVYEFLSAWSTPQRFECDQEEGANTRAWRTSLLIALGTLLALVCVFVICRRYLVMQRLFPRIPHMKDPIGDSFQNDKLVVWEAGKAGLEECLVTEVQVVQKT
Sequence (P32927 17-897, chain 2 of 2): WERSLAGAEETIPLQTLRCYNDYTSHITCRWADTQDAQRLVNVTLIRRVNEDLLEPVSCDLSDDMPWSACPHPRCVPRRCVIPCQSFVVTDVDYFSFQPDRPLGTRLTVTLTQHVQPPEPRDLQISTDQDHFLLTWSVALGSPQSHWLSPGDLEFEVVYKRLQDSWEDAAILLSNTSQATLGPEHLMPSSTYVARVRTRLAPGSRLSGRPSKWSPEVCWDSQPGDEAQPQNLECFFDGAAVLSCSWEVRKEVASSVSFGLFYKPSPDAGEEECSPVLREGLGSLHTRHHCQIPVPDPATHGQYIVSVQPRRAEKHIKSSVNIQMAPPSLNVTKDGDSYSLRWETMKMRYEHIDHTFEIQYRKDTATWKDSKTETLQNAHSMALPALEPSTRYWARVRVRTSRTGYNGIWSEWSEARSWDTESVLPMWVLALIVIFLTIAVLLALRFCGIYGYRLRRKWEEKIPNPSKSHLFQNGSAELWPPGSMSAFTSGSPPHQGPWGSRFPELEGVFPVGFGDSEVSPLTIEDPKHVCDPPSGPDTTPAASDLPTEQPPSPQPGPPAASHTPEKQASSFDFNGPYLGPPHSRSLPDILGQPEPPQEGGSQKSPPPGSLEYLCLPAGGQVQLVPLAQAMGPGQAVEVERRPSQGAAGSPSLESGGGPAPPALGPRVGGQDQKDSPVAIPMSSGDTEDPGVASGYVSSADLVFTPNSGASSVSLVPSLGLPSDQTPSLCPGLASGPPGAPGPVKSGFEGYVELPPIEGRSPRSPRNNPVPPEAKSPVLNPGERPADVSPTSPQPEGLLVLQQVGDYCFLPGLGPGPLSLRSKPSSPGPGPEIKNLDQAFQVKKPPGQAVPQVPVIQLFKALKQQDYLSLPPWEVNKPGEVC

The reported REL. SPEC. BIOLOGICAL ACTIVITY (DNA synthesis of AML193 cells) of the binder hIL-3 deletion mutant 939 (deletion 120-130) (ligand, not shown: heterologous N-terminal leader of the E. coli fusion (pGB/IL-336: 12 aa; pGB/IL-339: 15 aa)) APMTQTTPLKTSWVNCSNMIDEIITHLKQPPLPLLDFNNLNGEDQDILMENNLRRPNLEAFNRAVKSLQNASAIESILKNLLPCLPLATAAPTRHPIHIKDGDWNEFRRKLTFYLKTLEAIF was 2 relative to reference IL-3

The reported REL. SPEC. BIOLOGICAL ACTIVITY (DNA synthesis of AML193 cells) of the binder hIL-3 substitution mutant 1490 (His98Lys100Asp101→Glu98Asp100Gln101) (ligand, also called 98HIKD → EIKQ; not shown: heterologous N-terminal leader of the E. coli fusion (pGB/IL-336: 12 aa; pGB/IL-339: 15 aa)) APMTQTTPLKTSWVNCSNMIDEIITHLKQPPLPLLDFNNLNGEDQDILMENNLRRPNLEAFNRAVKSLQNASAIESILKNLLPCLPLATAAPTRHPIEIDQGDWNEFRRKLTFYLKTLENAQAQQTTLSLAIF was 0.0022 relative to reference IL-3

The reported REL. SPEC. BIOLOGICAL ACTIVITY (DNA synthesis of AML193 cells) of the binder hIL-3 deletion mutant 820 (deletion 85-90) (ligand, not shown: heterologous N-terminal leader of the E. coli fusion (pGB/IL-336: 12 aa; pGB/IL-339: 15 aa)) APMTQTTPLKTSWVNCSNMIDEIITHLKQPPLPLLDFNNLNGEDQDILMENNLRRPNLEAFNRAVKSLQNASAIESILKNLLPCAPTRHPIHIKDGDWNEFRRKLTFYLKTLENAQAQQTTLSLAIF was 1.1e-05 relative to reference IL-3

The reported REL. SPEC. BIOLOGICAL ACTIVITY (DNA synthesis of AML193 cells) of the binder hIL-3 substitution mutant 1487A (Glu75→Gly75) (ligand, also called 75E → G; not shown: heterologous N-terminal leader of the E. coli fusion (pGB/IL-336: 12 aa; pGB/IL-339: 15 aa)) APMTQTTPLKTSWVNCSNMIDEIITHLKQPPLPLLDFNNLNGEDQDILMENNLRRPNLEAFNRAVKSLQNASAIGSILKNLLPCLPLATAAPTRHPIHIKDGDWNEFRRKLTFYLKTLENAQAQQTTLSLAIF was 0.015 relative to reference IL-3

The reported REL. SPEC. BIOLOGICAL ACTIVITY (DNA synthesis of AML193 cells) of the binder hIL-3 substitution mutant 1483 (Glu50→Lys50) (ligand, also called 50E → K; not shown: heterologous N-terminal leader of the E. coli fusion (pGB/IL-336: 12 aa; pGB/IL-339: 15 aa)) APMTQTTPLKTSWVNCSNMIDEIITHLKQPPLPLLDFNNLNGEDQDILMKNNLRRPNLEAFNRAVKSLQNASAIESILKNLLPCLPLATAAPTRHPIHIKDGDWNEFRRKLTFYLKTLENAQAQQTTLSLAIF was 0.0027 relative to reference IL-3

The reported REL. SPEC. BIOLOGICAL ACTIVITY (DNA synthesis of AML193 cells) of the binder hIL-3 deletion mutant 822 (deletion 107-119) (ligand, not shown: heterologous N-terminal leader of the E. coli fusion (pGB/IL-336: 12 aa; pGB/IL-339: 15 aa)) APMTQTTPLKTSWVNCSNMIDEIITHLKQPPLPLLDFNNLNGEDQDILMENNLRRPNLEAFNRAVKSLQNASAIESILKNLLPCLPLATAAPTRHPIHIKDGDWNENAQAQQTTLSLAIF was 0.00021 relative to reference IL-3

The reported REL. SPEC. BIOLOGICAL ACTIVITY (DNA synthesis of AML193 cells) of the binder hIL-3 deletion mutant 932 (deletion 1-14) (ligand, not shown: heterologous N-terminal leader of the E. coli fusion (pGB/IL-336: 12 aa; pGB/IL-339: 15 aa)) NCSNMIDEIITHLKQPPLPLLDFNNLNGEDQDILMENNLRRPNLEAFNRAVKSLQNASAIESILKNLLPCLPLATAAPTRHPIHIKDGDWNEFRRKLTFYLKTLENAQAQQTTLSLAIF was 0.71 relative to reference IL-3

The reported REL. SPEC. BIOLOGICAL ACTIVITY (DNA synthesis of AML193 cells) of the binder hIL-3 substitution mutant 1492 (Arg108Arg109Lys110→Glu108Asp109Glu110) (ligand, also called 108RRK → EDE; not shown: heterologous N-terminal leader of the E. coli fusion (pGB/IL-336: 12 aa; pGB/IL-339: 15 aa)) APMTQTTPLKTSWVNCSNMIDEIITHLKQPPLPLLDFNNLNGEDQDILMENNLRRPNLEAFNRAVKSLQNASAIESILKNLLPCLPLATAAPTRHPIHIKDGDWNEFEDELTFYLKTLENAQAQQTTLSLAIF was 3.1e-05 relative to reference IL-3
